# studySystem: Carbonic anhydrase 2 (Homo sapiens)
# procedureSummary: Inhibition of recombinant human carbonic anhydrase-2 at 10 uM after 15 mins by stopped flow CO2 hydrase assay (reference value: 0%)
measurementType: inhibition at 0.25 h, 10 µM (%)
Give bare numbers, in %.

Quick one: inhibition at 0.25 h, 10 µM of COc1ccc(NC(=O)Nc2nc(N)n(-c3ccc(S(N)(=O)=O)cc3)n2)cc1 ?
85

----------
# studySystem: Carbonic anhydrase 1 (Homo sapiens, UniProt P00915)
# Sequence (P00915 whole entry): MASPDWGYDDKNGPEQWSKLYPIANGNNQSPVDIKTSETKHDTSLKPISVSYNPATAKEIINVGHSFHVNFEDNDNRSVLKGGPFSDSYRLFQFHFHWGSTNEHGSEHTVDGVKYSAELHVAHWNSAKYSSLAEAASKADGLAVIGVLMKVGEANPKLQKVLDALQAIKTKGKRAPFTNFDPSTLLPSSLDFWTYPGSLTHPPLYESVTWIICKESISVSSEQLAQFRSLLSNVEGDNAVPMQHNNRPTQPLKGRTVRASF
# procedureSummary: Inhibition of recombinant human carbonic anhydrase-1 incubated for 15 mins by stopped flow CO2 hydrase assay
Please respond with reported log10(Ki) for every item in the list.
// units: nM (pre-log); metric: Ki; scale: log10

Nc1nc(C(=O)N/N=C/c2ccc(F)cc2)nn1-c1ccc(S(N)(=O)=O)cc1 : 2.69

List reported log10(Ki) for each of these compounds:
1. COc1ccc(/C=N/NC(=O)c2nn(-c3ccc(S(N)(=O)=O)cc3)c3nc(C)cc(=O)n23)cc1
2. Nc1nc(NC(=O)Nc2ccc(C(=O)O)cc2)nn1-c1ccc(S(N)(=O)=O)cc1
3. Nc1nc(C(=O)NNC(=S)Nc2ccccc2)nn1-c1ccc(S(N)(=O)=O)cc1
4. Nc1nc(C(=O)NNC(=O)Nc2ccc(Cl)cc2)nn1-c1ccc(S(N)(=O)=O)cc1
5. Nc1nc(NC(=O)Nc2ccc(Cl)cc2)nn1-c1ccc(S(N)(=O)=O)cc1

[3.38, 2.71, 2.57, 2.73, 2.61]

Value sought for every listed compound: log10(Ki).
1. Cc1ccc(NC(=O)Nc2nc(N)n(-c3ccc(S(N)(=O)=O)cc3)n2)cc1
2. Nc1nc(NC(=O)Nc2ccc(S(N)(=O)=O)cc2)nn1-c1ccc(S(N)(=O)=O)cc1
3. Nc1nc(C(=O)N/N=C/c2ccccc2)nn1-c1ccc(S(N)(=O)=O)cc1
4. COc1ccc(NC(=O)Nc2nc(N)n(-c3ccc(S(N)(=O)=O)cc3)n2)cc1
5. Cc1cc(=O)n2c(C(=O)N/N=C/c3ccccn3)nn(-c3ccc(S(N)(=O)=O)cc3)c2n1
6. Nc1nc(C(=O)N/N=C/c2ccc(N3CCOCC3)cc2)nn1-c1ccc(S(N)(=O)=O)cc1
7. Cc1cc(=O)n2c(C(=O)N/N=C/c3ccc(N4CCN(C)CC4)cc3)nn(-c3ccc(S(N)(=O)=O)cc3)c2n1

[2.50, 2.83, 2.89, 2.84, 3.57, 2.99, 3.69]

----------
# studySystem: Carbonic anhydrase 1 (Homo sapiens, UniProt P00915)
# procedureSummary: Inhibition of recombinant human carbonic anhydrase-1 at 0.01 uM after 15 mins by stopped flow CO2 hydrase assay (reference value: 0%)
measurementType: inhibition at 0.25 h, 0.01 µM
Give the value; after it, write the unit.

Returns the measured inhibition at 0.25 h, 0.01 µM for the input compound. Input: COc1ccc(NC(=O)Nc2nc(N)n(-c3ccc(S(N)(=O)=O)cc3)n2)cc1
14%

----------
# studySystem: Carbonic anhydrase 2 (Homo sapiens, UniProt P00918)
# procedureSummary: Inhibition of recombinant human carbonic anhydrase-2 at 0.1 uM after 15 mins by stopped flow CO2 hydrase assay (reference value: 0%)
measurementType: inhibition at 0.25 h, 0.1 µM (%)
Answers are plain numbers, in %.

Request the reported inhibition at 0.25 h, 0.1 µM associated with COc1ccc(NC(=O)Nc2nc(N)n(-c3ccc(S(N)(=O)=O)cc3)n2)cc1
48
